IC50 by entry:
Target: Cruzipain (Trypanosoma cruzi, UniProt P25779)
Sequence (P25779 whole entry): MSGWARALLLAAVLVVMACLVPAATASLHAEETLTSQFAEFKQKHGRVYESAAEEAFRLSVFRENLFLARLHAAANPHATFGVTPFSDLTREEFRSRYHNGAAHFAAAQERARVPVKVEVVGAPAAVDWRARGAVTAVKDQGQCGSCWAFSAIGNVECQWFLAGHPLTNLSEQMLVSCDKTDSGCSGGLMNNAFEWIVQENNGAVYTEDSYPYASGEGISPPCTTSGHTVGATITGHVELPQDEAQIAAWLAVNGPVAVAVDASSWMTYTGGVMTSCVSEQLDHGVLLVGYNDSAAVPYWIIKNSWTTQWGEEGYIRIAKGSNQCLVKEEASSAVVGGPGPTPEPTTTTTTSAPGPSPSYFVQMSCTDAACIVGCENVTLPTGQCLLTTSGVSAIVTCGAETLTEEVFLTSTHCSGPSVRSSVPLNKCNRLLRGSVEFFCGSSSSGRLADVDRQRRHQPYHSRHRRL
Numeric only. Scale: nM

These solved cases illustrate the format of a correct answer.
>>> print(df.to_string())
                            compound_smiles  reading_unit  meas_value
0       O=C(COc1ccccc1F)NCCc1nc2ccccc2[nH]1            nM        5300
1      O=C(COc1ccccc1Cl)NCCc1nc2ccccc2[nH]1            nM        3000
2  COc1ccc2[nH]c(CCNC(=O)COc3ccc4ccccc4c3Br)nc2c1            nM         540

Would you kindly look at the next entry?
Requested read-out: IC50. Entry: O=C(COc1ccccc1I)NCCc1nc2ccccc2[nH]1
1600

* * *

Tested on: Mus musculus
Assay: Acute toxicity in BALB/c mouse at 20, 30, 50 and 50 mg/kg, ip administered at 0, 2, 4, 6 hrs respectively and measured after 24 hrs post last dose
Type: organism-based
Set-up: dose 50 mg/kg, route intraperitoneal
Conditions: in vivo
Measurement name: Activity

Past entries and their recorded results:
                          compound_smiles  meas_value
0   N#Cc1ccccc1OCC(=O)NCCc1nc2ccccc2[nH]1   Non-toxic
1     O=C(COc1ccccc1F)NCCc1nc2ccccc2[nH]1   Non-toxic
2  O=C(COc1ccc(Br)cc1)NCCc1nc2ccccc2[nH]1   Non-toxic
3      O=C(CSc1ccccc1)NCCc1nc2ccccc2[nH]1   Non-toxic
4     Cc1ccccc1OCC(=O)NCCc1nc2ccccc2[nH]1   Non-toxic

I have this compound here, O=C(COc1ccccc1I)NCCc1nc2ccccc2[nH]1 , and I need its recorded Activity.
Non-toxic

Follow-up entry: O=C(COc1cccc(Br)c1)NCCc1nc2ccccc2[nH]1
Non-toxic

* * *

Reported IC50 values follow for various compounds
Molecular target: Cruzipain (Trypanosoma cruzi)
Kindly answer with a numeric value in µM, unit omitted.

The following compounds have reported results that may help.
>>> print(df.to_string())
                            compound_smiles  measurement_name  reading_unit  meas_value
0    O=C(COc1cccc(Br)c1)NCCc1nc2ccccc2[nH]1              IC50            µM         0.8
1    O=C(COc1ccc(Br)cc1)NCCc1nc2ccccc2[nH]1              IC50            µM         2.7
2  C=CCCn1c(CCNC(=O)COc2ccccc2Cl)nc2ccccc21              IC50            µM        23.9
3  O=C(COc1ccc2ccccc2c1CO)NCCc1nc2ccccc2[nH]1              IC50            µM        12.7
4  O=C(COc1ccc2ccccc2c1O)NCCc1nc2ccccc2[nH]1              IC50            µM         8.2

Would you kindly share the measured IC50 for O=Cc1c(OCC(=O)NCCc2nc3ccccc3[nH]2)ccc2ccccc12 ?
13.5

What about O=C(COc1ccc2ccccc2c1Br)NCCc1nc2ccccc2[nH]1 ?
0.21

Next up: N#Cc1ccccc1OCC(=O)NCCc1nc2ccccc2[nH]1
65.1

* * *

As shown below, each of these compounds has a reported inhibition value.
Biological target: Cruzipain (Trypanosoma cruzi) (UniProt P25779)
Sequence (P25779 123-467 limits assumed): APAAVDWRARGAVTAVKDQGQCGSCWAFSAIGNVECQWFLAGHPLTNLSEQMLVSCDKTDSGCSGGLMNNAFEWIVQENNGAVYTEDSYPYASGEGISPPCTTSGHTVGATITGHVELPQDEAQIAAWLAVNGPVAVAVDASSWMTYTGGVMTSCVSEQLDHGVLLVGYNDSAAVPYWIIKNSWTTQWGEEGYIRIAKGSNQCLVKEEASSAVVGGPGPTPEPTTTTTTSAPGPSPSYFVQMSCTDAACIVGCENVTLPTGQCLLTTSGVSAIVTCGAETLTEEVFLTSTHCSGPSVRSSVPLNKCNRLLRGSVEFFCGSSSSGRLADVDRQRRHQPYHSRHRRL
Assay: Inhibition of Trypanosoma cruzi cruzaine expressed in Escherichia coli SG13009 using Z-FR-AMC as substrate at 100 uM after 5 mins
Numbers only here, please. The scale is %.

>>> print(df.to_string())
                         compound_smiles                              assay_target  meas_value
0  N#Cc1ccccc1OCC(=O)NCCc1nc2ccccc2[nH]1  Cruzipain (Trypanosoma cruzi) (UniProt P25779)          81
1   O=C(CCc1ccccc1Br)NCCc1nc2ccccc2[nH]1  Cruzipain (Trypanosoma cruzi) (UniProt P25779)          51
2           O=C(COc1ccccc1Br)NCCN1CCCCC1  Cruzipain (Trypanosoma cruzi) (UniProt P25779)           1

Which inhibition value is on record for CC(=O)n1c(CCNC(=O)COc2ccc(Br)cc2)nc2ccccc21 ?
84

Next compound: O=C(COc1ccc2ccccc2c1)NCCC(=O)Nc1ccccc1O
14

# iterate: O=C(COc1ccccc1Cl)NCCc1cnc[nH]1
14

Also O=C(COc1ccc2ccccc2c1Br)NCCc1c[nH]c2ccccc12 , if possible.
2

Also check Cc1ccccc1OCC(=O)NCCc1nc2ccccc2o1
33

// query: O=C(COc1ccc2ccccc2c1)NCCc1cnc[nH]1
7

Can you handle Cc1ccc2[nH]c(CCNC(=O)COc3ccc4ccccc4c3Br)nc2c1 next?
97

Same question, Nc1ccccc1NC(=O)CCNC(=O)COc1ccccc1[N+](=O)[O-] this time
4

Now this one: O=C(COc1ccc2ccccc2c1Br)NCCc1nc2cc(Cl)ccc2[nH]1
90

* * *

Biological target: Cruzipain (Trypanosoma cruzi)
Assay: Inhibition of Trypanosoma cruzi cruzaine expressed in Escherichia coli SG13009 using Z-FR-AMC as substrate at 100 uM after 5 mins
Property: inhibition; scope: individual compounds
Answer format: numeric, % implied, no suffix.

Sample records with inhibition:
>>> df
                            compound_smiles  meas_value
0  O=C(COc1cccc2ccccc12)NCCc1nc2ccccc2[nH]1          84
1       Cc1ccccc1OCC(=O)NCCc1nc2ccccc2[nH]1          88
2           Cc1ccccc1OCCNCCc1nc2ccccc2[nH]1           8

Give the reported inhibition for O=C(COc1ccc2ccccc2c1CO)NCCc1nc2ccccc2[nH]1 (system: Cruzipain (Trypanosoma cruzi)).
80

Subsequent entry: O=C(COc1ccccc1F)NCCc1nc2ccccc2[nH]1
92

Also need CC(=O)n1c(CCNC(=O)COc2ccccc2[N+](=O)[O-])nc2ccccc21 , thanks.
47

* * *

Test system: Mus musculus
Experiment: Acute toxicity in BALB/c mouse at 20, 30, 50 and 50 mg/kg, ip administered at 0, 2, 4, 6 hrs respectively and measured after last dose
Assay type: organism-based
Parameters: dose 50 mg/kg, route intraperitoneal
Conditions: in vivo
Measurement name: Activity

Below are worked cases with known answers.
In [3]: df
Out[3]:
                          compound_smiles  assay_target  measurement_name  meas_value
0  O=C(COc1cccc(Br)c1)NCCc1nc2ccccc2[nH]1  Mus musculus          Activity       Toxic
1     O=C(COc1ccccc1F)NCCc1nc2ccccc2[nH]1  Mus musculus          Activity       Toxic
2     Cc1ccccc1OCC(=O)NCCc1nc2ccccc2[nH]1  Mus musculus          Activity       Toxic
3   N#Cc1ccccc1OCC(=O)NCCc1nc2ccccc2[nH]1  Mus musculus          Activity       Toxic
4     O=C(COc1ccccc1I)NCCc1nc2ccccc2[nH]1  Mus musculus          Activity       Toxic

Consider the molecule shown here: O=C(CSc1ccccc1)NCCc1nc2ccccc2[nH]1 What is its recorded Activity?
Toxic

Here is the next molecule: O=C(COc1ccc(Br)cc1)NCCc1nc2ccccc2[nH]1
Toxic

* * *

Biological target: Cruzipain (Trypanosoma cruzi)
Assay: Inhibition of Trypanosoma cruzi cruzaine expressed in Escherichia coli SG13009 using Z-FR-AMC as substrate at 100 uM after 5 mins
Record t whenever inhibition is at 90% or higher; record f when lower.

Completed entries (count: 3):
>>> print(df.to_string())
                            compound_smiles  answer_label
0  COc1ccc2[nH]c(CCNC(=O)COc3ccc4ccccc4c3Br)nc2c1             t
1         Cc1ccccc1OCC(=O)NCCC(=O)Nc1ccccc1             f
2        Cc1ccccc1OCC(=O)NCCC(=O)Nc1ccccc1O             f

Given O=C(COc1ccccc1[N+](=O)[O-])NCCc1nc2ccccc2[nH]1 , state whether its inhibition is at least 90%.
t

Next: CC(=O)Nc1ccccc1OCC(=O)NCCc1nc2ccccc2[nH]1
f

Now the compound Nc1ccccc1OCC(=O)NCCc1nc2ccccc2[nH]1
f

Also O=C(COc1ccc2ccccc2c1O)NCCc1nc2ccccc2[nH]1 ?
f

Next: O=C(COc1ccc(Br)cc1)NCCc1nc2ccccc2[nH]1
t

Please give the result for Cc1ccccc1OCC(=O)NCCc1c[nH]c2ccccc12 too.
f

* * *

Target: Cruzipain (Trypanosoma cruzi)
Assay: Inhibition of Trypanosoma cruzi cruzaine expressed in Escherichia coli SG13009 using Z-FR-AMC as substrate at 100 uM after 5 mins
Returns one of label 1 or label 0; label 1 when inhibition is >= 80%.

Solved cases (3 shown):
In [3]: df
Out[3]:
                            compound_smiles  answer_label
0               Cc1ccccc1OCC(=O)NCCN1CCCCC1       label 0
1    O=C(COc1cccc(Br)c1)NCCc1nc2ccccc2[nH]1       label 1
2  O=C(COc1ccc2ccccc2c1)NCCc1nc2ccccc2[nH]1       label 1

Could you verify whether the entry Cc1ccccc1OCC(=O)NCCC(=O)O shows inhibition of no less than 80%?
label 0

Next molecule up: O=C(COc1ccccc1I)NCCc1nc2ccccc2[nH]1
label 1
